These measurements were taken from ChEMBL document CHEMBL4251581.

Test system: Mycobacterium tuberculosis
Experiment: Antimycobacterial activity against Mycobacterium tuberculosis H37Rv
Format: functional, organism-based
outcome.measure: MIC (µM)
State just the number; it will be interpreted in µM.

Ask | Tell us which MIC value is on record for CC(COC(=O)/C=C/c1ccccc1)[C@@H]1CC[C@]2(COC(=O)/C=C/c3ccccc3)CC[C@]3(C)[C@H](CC[C@@H]4[C@@]5(C)CCCNC(C)(C)[C@@H]5CC[C@]43C)[C@@H]12 (stereo partly drawn)
Reply | 200

Ask | Recall and state the measured MIC for "CC1(C)CC[C@]2(CO)CC[C@]3(C)C(=CC[C@@H]4[C@@]5(C)CCCNC(C)(C)[C@@H]5CC[C@]43C)[C@H]2C1" .
Reply | 12.5
